Target: T1, interleukin 4 (IL4) (UniProt P05112 25-153)
T1 sequence (looked up): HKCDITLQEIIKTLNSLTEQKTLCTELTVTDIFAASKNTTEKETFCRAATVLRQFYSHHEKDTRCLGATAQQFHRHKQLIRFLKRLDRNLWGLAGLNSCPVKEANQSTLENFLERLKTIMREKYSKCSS
Test: phage competition ELISA: Fab-phage incubated 2 h with serial dilutions of the antigen in solution, unbound phage captured on antigen-coated wells, anti-M13-HRP; IC50 = antigen concentration inhibiting 50% of phage binding
Attribute measured: IC50

These recorded examples may help you get a feel for the data.
>  <Binder>
F1, anti-IL4/IL13 dual specific variant of hu19C11, Fab displayed on phage (Fab, V domains shown) VH: EVQLVQSGAEVKKPGASVKVSCKASGYTFTDYSMHWVRQAPGQGLEWIGVIFQSGATYYADDFKGRVTITRDTSTSTAYLELSSLRSEDTAVYYCARGGIFYGMDYWGQGTLVTVSS VL: DIQMTQSPSSLSASVGDRVTITCKASQSVINDAAWYQQKPGKAPKLLIYYTSHRYTGVPSRFSGSGSGTDFTLTISSLQEDFATYYCQQDYTSPWTFGQGTKVEIKR

>  <IC50>
22.3 nM

$$$$
>  <Binder>
humanized antibody 19C11 (hu19C11) wild-type Fab displayed on M13 phage (Fab, V domains shown, Phagemid pV0115: light chain with gD expression tag fused to its C-terminus; VH-CH1 followed by hinge piece KTHTC and M13 minor coat protein p3 (bivalent Fab display); Humanized in germline VH1 / kappa I backbone; also called hu19C11 wt; Fab-displaying phage) VH: EVQLVQSGAEVKKPGASVKVSCKASGYTFTDYSMHWVRQAPGQGLEWIVWINTETGEPTYADDFKGRVTITRDTSTSTAYLELSSLRSEDTAVYYCARGGIFYGMDYWGQGTLVTVSS VL: DIQMTQSPSSLSASVGDRVTITCKASQSVINDAAWYQQKPGKAPKLLIYYTSHRYTGVPSRFSGSGSGTDFTLTISSLQEDFATYYCQQDYTSPWTFGQGTKVEIKR

>  <IC50>
1.1 nM

$$$$
>  <Binder>
B1, anti-IL4/IL5 dual specific variant of hu19C11, Fab displayed on phage (Fab, V domains shown, also called clone B1) VH: EVQLVQSGAEVKKPGASVKVSCKASGYTFTDYLMHWVRQAPGQGLEWIAVIVSITGRTYYADDFKGRVTITRDTSTSTAYLELSSLRSEDTAVYYCARGGIFYGMDYWGQGTLVTVSS VL: DIQMTQSPSSLSASVGDRVTITCKASQSVINDAAWYQQKPGKAPKLLIYYTSHRYTGVPSRFSGSGSGTDFTLTISSLQEDFATYYCQQDYTPFPLTFGQGTKVEIKR

>  <IC50>
~1000 nM

$$$$

Kindly consider the entry below.
// query Given F2, anti-IL4/IL13 dual specific variant of hu19C11, Fab displayed on phage (Fab, V domains shown) VH: EVQLVQSGAEVKKPGASVKVSCKASGYTFTDYSMHWVRQAPGQGLEWIGIIFYTGHTYYADDFKGRVTITRDTSTSTAYLELSSLRSEDTAVYYCARGGIFYGMDYWGQGTLVTVSS VL: DIQMTQSPSSLSASVGDRVTITCKASQSVINDAAWYQQKPGKAPKLLIYYTSHRYTGVPSRFSGSGSGTDFTLTISSLQEDFATYYCQQDYTSPWTFGQGTKVEIKR , state its recorded IC50.
// result 14.8 nM
